Assay: self-splicing fitness, log relative to wild type (ln ratio); higher = more splicing; Tetrahymena group I intron in knt gene, E. coli kanamycin selection, DiMSum; sequences stand for … in CUCUCU…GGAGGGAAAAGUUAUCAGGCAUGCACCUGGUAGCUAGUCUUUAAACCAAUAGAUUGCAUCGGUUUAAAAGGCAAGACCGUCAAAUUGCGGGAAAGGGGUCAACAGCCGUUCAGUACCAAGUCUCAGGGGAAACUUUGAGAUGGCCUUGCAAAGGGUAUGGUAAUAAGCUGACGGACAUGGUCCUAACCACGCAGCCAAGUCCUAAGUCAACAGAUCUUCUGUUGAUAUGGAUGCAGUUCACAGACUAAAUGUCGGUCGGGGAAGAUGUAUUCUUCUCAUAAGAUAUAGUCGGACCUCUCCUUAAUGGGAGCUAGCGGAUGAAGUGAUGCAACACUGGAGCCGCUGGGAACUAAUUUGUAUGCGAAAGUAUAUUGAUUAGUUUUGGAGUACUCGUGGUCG;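 also: selection with 25 µg/mL kanamycin versus none on LB agar overnight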
Conditions: 30 °C
We begin with a simple list: items and their reported self-splicing fitness (ln).
REPORTED ENDPOINT: self-splicing fitness (ln)

| ITEM SEQUENCE | MEASURED NUMBER |
| --- | --- |
| CCCAAGCAAUAUUACGCUUG | -3.39 |
| GACAAGCAAUAUUACGUUAG | -3.84 |
| AUCGAGCAAUAUUACGAUCU | -1.58 |
| GUAAAGCAAUAUUACGACAU | 0.272 |
| AGGAAGCAAUAUUACGUAUA | -1.79 |
| GACUAGCAAUAUUACGCUGU | -3.22 |
| AGAGAGCAAUAUUACGGGUG | -3.31 |
| GAUUAGCAAUAUUACGAGCU | -1.23 |
| UGGUAGCAAUAUUACGGAAA | -1.86 |
| UUUUAGCAAUAUUACGCGAU | -3.02 |
| GCCCAGCAAUAUUACGGGUC | -4.06 |
| GUAAAGCAAUAUUACGACGU | 0.341 |
| ACCUAGCAAUAUUACGGUCG | -3.53 |
| UCACAGCAAUAUUACGCAUG | -2.04 |
| GCGGAGCAAUAUUACGGCGA | -1.5 |
| GCAAAGCAAUAUUACGAUCA | -1.4 |
| UUUUAGCAAUAUUACGGUCC | -2.8 |
| UUACAGCAAUAUUACGGCUU | -1.13 |
| UAUCAGCAAUAUUACGGUAA | -0.552 |
| CCAUAGCAAUAUUACGCCGA | -1.4 |
| CGCAAGCAAUAUUACGGCAC | -2.32 |
| GCGAAGCAAUAUUACGGGAG | -3.05 |
| GAGCAGCAAUAUUACGCGGA | -2.11 |
| UACGAGCAAUAUUACGGCAA | -1.96 |
| UUACAGCAAUAUUACGGGGC | -3.36 |
| UUAGAGCAAUAUUACGGUCA | -1.7 |
| GUGUAGCAAUAUUACGGUUG | -2.88 |
| CGCCAGCAAUAUUACGAAAC | -4.57 |
| GGCAAGCAAUAUUACGGUGA | -0.759 |
| GGACAGCAAUAUUACGGCUG | -3.23 |
| ACACAGCAAUAUUACGAGUA | -2.69 |
| GUGCAGCAAUAUUACGGGAG | -2.01 |
| UUGAAGCAAUAUUACGUGCA | -0.222 |
| AAGAAGCAAUAUUACGCACC | -1.11 |
